# experimental.target: T1, Human soluble IL-6R (human, UniProt P08887 20-358)
# T1 construct: Soluble recombinant form; biotinylated in some assays; also called hIL-6R; human IL-6R
# T1 sequence (looked up): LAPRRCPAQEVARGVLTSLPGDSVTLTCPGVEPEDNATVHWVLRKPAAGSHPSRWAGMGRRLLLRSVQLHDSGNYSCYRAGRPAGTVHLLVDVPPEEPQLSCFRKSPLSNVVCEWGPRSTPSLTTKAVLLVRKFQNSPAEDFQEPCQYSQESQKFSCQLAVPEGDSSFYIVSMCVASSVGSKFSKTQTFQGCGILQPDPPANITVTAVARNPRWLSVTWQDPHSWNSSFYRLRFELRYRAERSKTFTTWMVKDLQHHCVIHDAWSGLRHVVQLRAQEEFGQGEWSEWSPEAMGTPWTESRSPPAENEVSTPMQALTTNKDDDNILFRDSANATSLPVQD
# protocol.description: Alphascreen IL-6/IL-6R competition (IL-6R 0.3 nM, bio-IL-6 3 nM); row EC50 of the fit table, axis [competitor], M; blocked ligand IL-6
// values below are reported IC50
metric.name: IC50 (nM)

binder="IL6R04 (VHH, also called PMP32C9; not shown: C-terminal c-myc and (His)6 tags) VHH: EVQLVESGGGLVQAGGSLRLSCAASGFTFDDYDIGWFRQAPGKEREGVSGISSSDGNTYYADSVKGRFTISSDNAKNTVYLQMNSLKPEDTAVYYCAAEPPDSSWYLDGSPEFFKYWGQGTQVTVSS" reported_result=0.18
binder="IL6R72 (VHH) VHH: EVQLVESGGGLVQPGGSLRLSCAASGFTFSDYDIGWFRQAPGKGREGVSGISSSDGNTYYADSVKGRFTISSDNAKNTVYLQMNSLRPEDTAVYYCAAEPPDSSWYLDGSPEFFKYWGQGTLVTVSS" reported_result=0.161
